Protocol details: protein stability index of a GFP-peptide fusion (GPS, HEK-293T) (PSI 1-6); higher = more stable;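 note: 24-mer peptide tiles fused after GFP, lentivirally expressed, FACS-sorted into six equal bins by GFP/DsRed ratio, decoded by Illumina sequencing, PSI is the read-weighted mean bin number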
Experimental setup: treatment: DMSO; c terminus: a fixed tail appended
# label = Met if protein stability index >= 4 else Not met

Take a look at these entries with their results.
> print(dat)
                            residues    group
1    VAGTMESPFSPGLFHRLDEDWDSA [ATF6]      Met
2  PLHHQTQRFRLDNLLNMAYGVKSP [ELAVL3]  Not met
3    NLHRVAAHELGHSLGLSHSTDIGA [MMP1]  Not met

In: Decide: protein stability index of LKELQAIAERLGCTLPQLAIAWCL [KCNAB2] >= 4?
Out: Not met

In: Decide: protein stability index of LAQQLCTALLFLATPELSIIHCDL [DYRK1B] >= 4?
Out: Not met

In: Decide: protein stability index of DLKPENILFVNSEFETLYNEHKSC [CLK3] >= 4?
Out: Not met

In: Decide: protein stability index of EEVRQLLETMARNEVIADINCKGR [OSBPL1A] >= 4?
Out: Not met

In: Decide: protein stability index of LEGSHDTANCEACTLGICGQGLKS [RTP4] >= 4?
Out: Met

In: Decide: protein stability index of LRELCRLWLRPETHTKEQILELVV [ZNF24] >= 4?
Out: Not met

In: Decide: protein stability index of LQDLALQGAKERAHQQKKHSGFED [CHGA] >= 4?
Out: Met

====

The following sequences are listed with their measured protein stability index values.
Protocol details: protein stability index of a GFP-peptide fusion (GPS, HEK-293T) (PSI 1-6); higher = more stable
Experimental setup: treatment: DMSO; c terminus: a fixed tail appended
Respond with the number and no other words.

In the examples that follow, each entry is paired with its recorded protein stability index.
> print(dat)
                             residues        measured.endpoint  result.number
1   MTLAANHELMLRFKDEYKSENIKL [CCDC89]  protein stability index           3.44
2  VGKTRLICARACNTTLTQYQLLAT [RHOBTB1]  protein stability index           2.18
3   NICENTEGAIAVHCKAGLGRTGTL [CDC14A]  protein stability index           3.13
4    TSTRYEQPKCDNTARAHPAKARDL [SMOC2]  protein stability index           4.85
5    SRSSILVQHQRVHTGEKPYKCLEC [ZNF24]  protein stability index           3.54
6    VGRTEPELLVAHAYTRYLGDLSGG [HMOX1]  protein stability index           2.68
7   WNNVGLLGGRALMNCLPSNRTLWR [LRRC45]  protein stability index           2.23
8   DSMEGKRSPYAGLQLGAAKKPPVT [TRIM29]  protein stability index           4.58

Consider the record given below.
In: Hello, please tell me recorded protein stability index for this one: FASDGDSGTCSPLRHSFQKQQREK [ADD1]
Out: 3.98

====

Protocol details: protein stability index of a GFP-peptide fusion (GPS, HEK-293T) (PSI 1-6); higher = more stable
Experimental setup: treatment: DMSO; c terminus: a fixed tail appended
# label = 1 if protein stability index >= 4 else -1

In: Decide: protein stability index of GPALPNGPLLGTNGATDDSKTNLI [ELAVL3] >= 4?
Out: 1

In: Decide: protein stability index of HGLLGSPVRAAASSPVTTLTQTMH [CDC25B] >= 4?
Out: -1

In: Decide: protein stability index of PKTPMDGADCGIQWWNAVFIMLLI [LYSMD4] >= 4?
Out: -1

In: Decide: protein stability index of GCLLDDGLEGLFEDIDTSMYDNEL [SERTAD1] >= 4?
Out: 1

In: Decide: protein stability index of LCSRQDLYPALKGVNTVFHCASPP [NSDHL] >= 4?
Out: -1
